- Test system: UO-31
- experiment_description: NCI tumour cell line growth inhibition, 48 h
The source made the active and inactive calls. No stated cut-off is given here; in the data, active = GI50 up to about 1.1 µM and inactive = higher.
measure_name: GI50

>  <compound>
CC(=O)/C(=C/N1CCNC1=S)C(=O)Nc1ccccc1C

>  <assay_result>
> 100 µM (inactive)

$$$$
>  <compound>
CC(C)C(Br)C(=O)NCC(=O)O (stereo not drawn)

>  <assay_result>
> 100 µM (inactive)

$$$$
>  <compound>
C#CCOC(=O)[C@@H](C)c1ccc2cc(OC)ccc2c1

>  <assay_result>
94 µM (inactive)

$$$$

Note to self: GI50 recorded for COc1cccc(C2c3cc4c(cc3OC(N3CCCC3)C2C)OCO4)c1 (stereo not drawn) was 12.1 µM (inactive)

GET /value?item= CCCCCCNC(=S)N/N=C(\C)c1ccccn1 &field=GI50 returns 0.124 µM (active)

Given item Cc1ccc(SC(CCC(Sc2ccc(C)cc2)Sc2ccc(C)cc2)Sc2ccc(C)cc2)cc1 , the value recorded as its GI50 is > 100 µM (inactive)

The reported value for O=C(COc1ccccc1Cl)N1N=C(c2ccccc2)CC1(O)c1ccccc1 (stereo not drawn) in terms of GI50 is 10.1 µM (inactive)

// field: GI50; key: CC(=O)c1ccc2c(c1)CC1(C2)Cc2cc3c(c(C(=O)O)c2C1)CCC3 (stereo not drawn) ; value = 40 µM (inactive)

----------
- Tested on: CAKI-1
- experiment_description: NCI tumour cell line growth inhibition, 48 h
Active and inactive are the calls of the source. Cut-off read from the data, not from the text of the source: active = GI50 up to about 1.1 µM and inactive = higher.
measure_name: GI50

>  <compound>
CC(=O)OCCOCCN1CCN(C2=C(Cl)C(=O)c3c(O)ccc(O)c3C2=O)CC1

>  <measure_name>
GI50

>  <assay_result>
0.339 µM (active)

$$$$
>  <compound>
O=c1c2cc(I)ccc2nc(-c2cccs2)n1/N=C/c1ccccc1

>  <measure_name>
GI50

>  <assay_result>
> 100 µM (inactive)

$$$$
>  <compound>
Oc1c(Br)cc(CN(Cc2cc(Br)c(O)c(Br)c2)C2CCCCC2)cc1Br

>  <measure_name>
GI50

>  <assay_result>
> 100 µM (inactive)

$$$$
>  <compound>
CN(C)CCNC(=O)c1cccc2cc3c(Cl)cccc3nc12

>  <measure_name>
GI50

>  <assay_result>
3.63 µM (inactive)

$$$$
>  <compound>
CCN1CCN(c2nc3ccccc3nc2C(=O)c2ccc(OC)c(OC)c2)CC1

>  <measure_name>
GI50

>  <assay_result>
82.4 µM (inactive)

$$$$

compound O=C(c1ccc(Cl)cc1Cl)N(C(=O)N1CCC(c2ccccc2)CC1)c1ccccc1 , GI50 observed: > 100 µM (inactive)

// sample CCCCCCCCCCCCCCCCCCC1=C(O)C(=O)C=C(OC)C1=O , its GI50 was 39.5 µM (inactive)

Record Cc1cc(=O)oc2cc(OC(=O)Nc3ccccc3)ccc12 , field GI50: > 100 µM (inactive)

Measured GI50, CC(=O)N1C=Cc2c(c(C)c3c([nH]c4ccccc43)c2C)C1 : 10.1 µM (inactive)

# GI50 of O=[N+]([O-])c1ccccc1S(=O)(=O)c1ccccc1[N+](=O)[O-] = > 100 µM (inactive)

The reported value for COc1ccc(C(=O)Cc2c(C(=O)c3ccccc3)c3ccccc3n2C(=O)c2ccccc2)cc1 in terms of GI50 is > 100 µM (inactive)

----------
- System: SF-268
- experiment_description: NCI tumour cell line growth inhibition, 48 h
Calls of active or inactive are those of the source. Rule as the data show it: active = GI50 up to about 1.1 µM and inactive = higher.
Listed below: GI50 values for each entry.

Example results:
>  <smi>
N#CSC#Cc1ccc(C#CSC#N)cc1

>  <system_name>
SF-268

>  <measure_name>
GI50

>  <assay_result>
21.5 µM (inactive)

$$$$
>  <smi>
CC(=O)c1cc2ccccc2[n+]([O-])c1N

>  <system_name>
SF-268

>  <measure_name>
GI50

>  <assay_result>
> 100 µM (inactive)

$$$$

# compound Cc1c(C(=O)/C=C/c2ccco2)[n+]([O-])c2ccccc2[n+]1[O-] ; its GI50 = > 100 µM (inactive)

----------
GI50 values by entry
- Test system: HT-29
- experiment_description: NCI tumour cell line growth inhibition, 48 h
The source made the active and inactive calls. Rule as the data show it: active = GI50 up to about 1.1 µM and inactive = higher.

>  <compound>
CC1(C)C(OC(=O)c2ccccc2)C[C@]23CCC[C@](C)(C[C@@H](O)C12)C3 (stereo not given in full)

>  <system_name>
HT-29

>  <GI50>
16.1 µM (inactive)

$$$$
>  <compound>
CC(C)(C)C=C=C(C(C)(C)C)P(=O)(O)O

>  <system_name>
HT-29

>  <GI50>
> 100 µM (inactive)

$$$$
>  <compound>
CCOC(=O)C1(C)CCCCC(=O)N1 (stereo not given)

>  <system_name>
HT-29

>  <GI50>
> 100 µM (inactive)

$$$$
>  <compound>
COc1ccc(-n2c(=O)n(C)c(=O)n2-c2c(C)c(C)c(C)c(C)c2C)cc1

>  <system_name>
HT-29

>  <GI50>
> 100 µM (inactive)

$$$$

// next item, GI50 requested
Field GI50 (entry CC1CCCN1CCCOC(=O)c1ccc(OC2C=CCCC2)cc1 (stereo not given) ) reads 17.7 µM (inactive)

----------
- System: EKVX
- experiment_description: NCI tumour cell line growth inhibition, 48 h
Active and inactive are the calls of the source. No stated cut-off is given here; in the data, active = GI50 up to about 1.1 µM and inactive = higher. Bridge positions count the residues as written; N and C are the ends. Square brackets hold non-standard residues; d marks the D form. Peptide text beside a SMILES is read from it. I, II: the chains in the order shown. * marks the point of attachment. Quinoxaline2carbonyl = O=C(c1cnc2ccccc2n1)*; NMeV = CN[CH](C(=O)O)C(C)C; NMeC = CN[CH](CS)C(=O)O
Outcome field: choose from 1 (active), -1 (inactive)

>  <molecule>
CC1NC(=O)C(NC(=O)c2cnc3ccccc3n2)COC(=O)C(C(C)C)N(C)C(=O)C2CSSCC(C(=O)N(C)C(C(C)C)C(=O)OCC(NC(=O)c3cnc4ccccc4n3)C(=O)NC(C)C(=O)N2C)N(C)C1=O (centres undefined) (I: Quinoxaline2carbonyl-SA[NMeC][NMeV] / II: Quinoxaline2carbonyl-SA[NMeC][NMeV]; ester I:1-II:C, I:C-II:1; disulfide I:3-II:3; configuration not given here)

>  <qualitative_label>
1

$$$$
>  <molecule>
COCCOCCOCCOc1ccc(C(C#N)N(CCc2ccccc2)C(=O)c2cc(C(=O)N(CCc3ccccc3)C(C#N)c3ccc(OCCOCCOCCOC)cc3)cc(C(=O)N(CCc3ccccc3)C(C#N)c3ccc(OCCOCCOCCOC)cc3)c2)cc1 (centres undefined)

>  <qualitative_label>
-1

$$$$
>  <molecule>
COc1ccc(C2C3CCCC(C3=O)C(c3ccc(OC)cc3)N2N=O)cc1 (centres undefined)

>  <qualitative_label>
-1

$$$$

Please turn your attention to the following entry.
What did this assay record as the result for Oc1cc(O)c2c(-c3c(O)c(-c4ccc(O)c(O)c4)[o+]c4cc(O)cc(O)c34)c(O)c(-c3ccc(O)c(O)c3)[o+]c2c1 ?
-1

----------
- Test system: DMS-114
- experiment_description: NCI tumour cell line growth inhibition, 48 h
Active and inactive are the calls of the source. Rule as the data show it: active = GI50 up to about 1.1 µM and inactive = higher.
measure_name: GI50

Known GI50 results, listed for orientation:
>  <compound>
COc1ccc(/C=C\c2cc(OC)c3c(c2)OCO3)c(O)c1O

>  <system_name>
DMS-114

>  <GI50>
2.88 µM (inactive)

$$$$
>  <compound>
COc1ccc(C2C3CCCC(C3=O)C(c3ccc(OC)cc3)N2N=O)cc1 (stereo not given)

>  <system_name>
DMS-114

>  <GI50>
23.1 µM (inactive)

$$$$
>  <compound>
Cc1ccc(S(=O)(=O)C2=c3ncccc3=C3C(=O)c4ccccc4C(=O)C32)cc1 (stereo not given)

>  <system_name>
DMS-114

>  <GI50>
65 µM (inactive)

$$$$
>  <compound>
N#CN1CCC2CC(=O)CCC2C1 (stereo not given)

>  <system_name>
DMS-114

>  <GI50>
> 100 µM (inactive)

$$$$

Entry CCCc1cc(-c2ccc(-c3cc(CCC)c(C=O)[nH]3)s2)[nH]c1C=O ; GI50 = 8.77 µM (inactive)

----------
- Test system: OVCAR-5
- experiment_description: NCI tumour cell line growth inhibition, 48 h
The source made the active and inactive calls. No stated cut-off is given here; in the data, active = GI50 up to about 1.1 µM and inactive = higher.
Bench note: report the call from 1 = active, 0 = inactive

Test call for this compound, please: CCOC(=O)c1cn(CC)c2cc3c(cc2c1=O)SCS3
0

So what was the verdict on CC(=O)O[C@]1(C(C)=O)CC[C@H]2[C@@H]3C[C@H](C)C4=CC(=O)C=C[C@]4(C)[C@@]3(F)[C@@H](O)C[C@@]21C [FLUOROMETHOLONE ACETATE] in this test?
1

Each compound tested received a call. Report the one for C#CCOC(=O)[C@@H](C)c1ccc2cc(OC)ccc2c1 .
0

# fetch the recorded call for O=C(c1ccc(Cl)cc1Cl)N(C(=O)N1CCC(c2ccccc2)CC1)c1ccccc1 here
0
